Hello, the source for this data is patent US6583154B1, in case you need it.

Where a name gives a salt, the structure may show the parent alone.
Below, each entry is listed with its recorded melting point.
readout_type: melting point

> print(dat)
                                   compound    experimental.value
1  CSc1nc(N2CCCCC2)c2[nH]c(-c3ccccc3)cc2n1.Cl (hydrate or solvate)  281 to 283 °C (dec.)
2  Cc1nc2c3c(cc(-c4ccccc4)n3CC3CCCCN23)n1.Cl (centres unmarked) (hydrate or solvate)              > 280 °C
3  Cc1nc(N2CCCCC2)c2[nH]c(-c3ccccc3)c(C)c2n1.Cl (hydrate or solvate)              > 280 °C
4   Cl.c1csc(-c2cc3ncnc(N4CCCCC4)c3[nH]2)c1              > 280 °C
5  Cc1nc(N2CCCCC2)c2[nH]c(-c3ccc(O)cc3)c(C)c2n1.Cl (hydrate or solvate)              > 280 °C
6  c1ccc(-c2cc3nc(N4CCN(c5ccccc5)CC4)nc(N4CCCCC4)c3[nH]2)cc1 (as salt: hydrochloride) (hydrate or solvate)       267.5 to 270 °C
7     CCN(CC)c1nc(C)nc2cc(-c3ccccc3)[nH]c12         184 to 185 °C
8  Cc1nc(N2CCCCC2)c2[nH]c(-c3ccc4ccccc4c3)cc2n1.Cl (hydrate or solvate)              > 280 °C

----------
Where a name gives a salt, the structure may show the parent alone.

compound	melting point
Cc1nc(N2CCCCC2)c2sc(C(C)(C)C)cc2[n+]1[O-].Cl	202 to 203 °C (dec.)
Nc1nc(N2CCCCC2)c2[nH]c(-c3ccccc3)cc2n1 (as salt: hydrochloride) (hydrate or solvate) [Example 66e, Hydrochloride Hydrate]	> 300 °C (dec.)
CC1=C(c2cc3nc(C)nc(N4CCCCC4)c3[nH]2)CCC1.Cl	224.5 to 226 °C
Cc1nc(N2CCCCC2)c2[nH]c(-c3cccc(N)c3)cc2n1 (as salt: hydrochloride) (hydrate or solvate) [Example 187, Hydrochloride Monohydrate]	> 275 °C
Cc1nc(N2CCCCC2)c2[nH]c(-c3cc(F)ccc3F)cc2n1.Cl (hydrate or solvate)	279 to 281 °C
Cc1nc(N2CCCCC2)c2c(cc(-c3ccccc3)n2C)n1	131 to 132 °C
Cl.c1ccc2oc(-c3cc4ncnc(N5CCCCC5)c4[nH]3)cc2c1 (hydrate or solvate)	278.5 to 281 °C

----------
Catalogue of compounds with associated melting point
readout_type: melting point

> print(dat)
                                   compound      experimental.value
1  Cc1nc(N2CCCCC2C)c2[nH]c(-c3ccc(F)cc3)cc2n1.Cl (centres unmarked) (hydrate or solvate)           274 to 276 °C
2  Cc1nc(N2CCCCC2)c2[nH]c(-c3cnccn3)cc2n1.Cl (hydrate or solvate)         280 to 283.5 °C
3  Cc1nc(N2CCCCC2)c2[nH]c(-c3cccc(Cl)c3)cc2n1.Cl (hydrate or solvate) [Example 70e]  244.5 to 246 °C (dec.)
4  Cc1nc(N2CCCCC2)c2[nH]c(-c3ccn(S(=O)(=O)c4ccccc4)c3)cc2n1.Cl (hydrate or solvate)         183 to 185.5 °C
5  Cc1nc(N2CCCCC2)c2[nH]c(-c3cccc(F)c3)cc2n1.Cl (hydrate or solvate)                > 285 °C
6  Cc1nc(NCc2ccc(C)o2)c2[nH]c(-c3ccccc3)cc2n1         125 to 127.5 °C
7  Cc1c(-c2ccccc2)[nH]c2c(N3CCCCC3)ncnc12.Cl         281 to 282.5 °C
8  Cc1nc(N2CCCCC2)c2[nH]c(-c3cc4ccccc4s3)cc2n1.Cl (hydrate or solvate)                > 280 °C
